- Test system: Vibrio cholerae
- Protocol Text: growth AUC normalised to DMSO control (fraction of control); higher = less growth inhibition, active = hit call of the paper;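 active = AUC significantly below DMSO controls by Student t-fit with adjusted P under 0.01; inactive = not significantly reduced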
- Protocol Conditions: 20 µM
Counter-ions that a name gives are not always drawn.
Respond using exactly one of the listed classes: YES for active, NO for inactive

| Molecule | Class |
| --- | --- |
| Clc1ccc(CCC(Cn2ccnc2)Sc2c(Cl)cccc2Cl)cc1 (stereo not drawn) [Butoconazole nitrate] | NO |
| CCCC(=O)Nc1ncnc2c1ncn2[C@@H]1O[C@@H]2COP(=O)(O)O[C@H]2[C@H]1OC(=O)CCC [Bucladesine sodium salt] | NO |

Okay, next one:
Asked: Just curious, what result did CN(Cc1cc(Br)cc(Br)c1N)C1CCCCC1 [Bromhexine hydrochloride] get here?
Given back: YES

====

Reported values of growth AUC normalised to DMSO control for individual entries
- Test system: Yersinia pseudotuberculosis
- Protocol Text: growth AUC normalised to DMSO control (fraction of control); higher = less growth inhibition, active = hit call of the paper
- Protocol Conditions: 20 µM
Structures can show the parent of a compound that is named as a salt.
// response body must contain only the number

Please review the entries below; each comes with its answer.
| Molecule | growth AUC normalised to DMSO control |
| --- | --- |
| CC(=O)OCC(=O)[C@@]12N=C(C)O[C@@H]1C[C@H]1[C@@H]3CCC4=CC(=O)C=C[C@]4(C)[C@H]3[C@@H](O)C[C@@]12C [Deflazacort] | 0.999 |
| CC(Oc1c(Cl)cccc1Cl)C1=NCCN1 (stereo not given) [Lofexidine] | 1.01 |
| COc1ccccc1N1CCN(CCCNc2cc(=O)n(C)c(=O)n2C)CC1 [Urapidil hydrochloride] | 1 |
| COc1cc([C@@H]2c3cc4c(cc3[C@@H](O[C@@H]3O[C@@H]5CO[C@@H](C)O[C@H]5[C@H](O)[C@H]3O)[C@H]3COC(=O)[C@H]23)OCO4)cc(OC)c1O [Etoposide] | 0.99 |

Asked: Look up growth AUC normalised to DMSO control for this molecule: CCCCC1C(=O)N(c2ccccc2)N(c2ccc(O)cc2)C1=O (stereo not given) [Oxyphenbutazone]
Given back: 1

====

growth AUC normalised to DMSO control by entry:
- System: Yersinia pseudotuberculosis
- Protocol Text: growth AUC normalised to DMSO control (fraction of control); higher = less growth inhibition, active = hit call of the paper
- Protocol Conditions: 20 µM
Where a name gives a salt, the structure may show the parent alone.
Field format: numeric only.

| Compound | Quantity Measured | Recorded Measurement |
| --- | --- | --- |
| Cc1ccc(-c2cc(C(F)(F)F)nn2-c2ccc(S(N)(=O)=O)cc2)cc1 | growth AUC normalised to DMSO control | 1.03 |
| OCC(O)CN1CCN(c2ccccc2)CC1 (stereo not given) | growth AUC normalised to DMSO control | 1.01 |
| O=C(O)Cc1sc(-c2ccccc2)nc1-c1ccc(Cl)cc1 | growth AUC normalised to DMSO control | 1.02 |

Asked: Fill blank: measured growth AUC normalised to DMSO control of the compound OCCN1CCN(CCCN2c3ccccc3C=Cc3ccccc32)CC1 [Opipramol dihydrochloride] is ____.
Given back: 0.996

Asked: Consider next the compound CCCCCCCCCCCCCCCC[N+](C)(C)CCN(Cc1ccc(OC)cc1)c1ncccn1 [Thonzonium bromide] in the same way.
Given back: 1.01

// provenance: the supplement of paper PMC12350171
